From: ChEMBL document CHEMBL4351004

Tested on: HT-29
methodDescription: Antiproliferative activity against human HT-29 cells assessed as growth inhibition after 48 hrs by sulforhodamine B assay
Assay type: functional
recordedConditions: HT-29, 48 h
testReadout: GI50

query: Quick check: GI50 on HT-29, item CCOC(=O)c1cc2c([nH]c3ccc(OC)cc32)c(-c2ccccc2)n1 ?
result: > 100 µM

Continuing:
query: GI50 of COC(=O)c1cc2c([nH]c3ccccc32)c(-c2ccc(OC)cc2)n1 on HT-29?
result: 24.8 µM

query: Please tell me: GI50 of CCOC(=O)c1cc2c([nH]c3ccc(OC)cc32)c(-c2ccc(OC)cc2)n1 , system HT-29?
result: > 100 µM

query: Provide the documented GI50 with HT-29 as the system for COC(=O)c1cc2c([nH]c3ccccc32)c(-c2cccc([N+](=O)[O-])c2)n1
result: > 100 µM

query: Requested read-out GI50, target or system HT-29, entry Fc1ccc(-c2nc(-c3nnnn3Cc3ccccc3)cc3c2[nH]c2ccccc23)cc1
result: 6.51 µM

query: Given the entry COC(=O)c1cc2c([nH]c3ccccc32)c(-c2ccc(O)cc2)n1 , what GI50 was observed with HT-29?
result: 25.1 µM

query: What GI50 appears in the records for this compound with HT-29? COc1ccc(-c2nc(-c3nnnn3Cc3ccccc3)cc3c2[nH]c2ccccc23)cc1
result: 18.3 µM

query: Give the reported GI50 for CCOC(=O)c1cc2c([nH]c3ccc(OC)cc32)c(-c2ccc(N(C)C)cc2)n1 (system: HT-29).
result: > 100 µM

query: Form entry - test system: HT-29; read-out: GI50; compound: COC(=O)c1cc2c([nH]c3ccccc32)c(-c2ccc(N(C)C)cc2)n1
result: 34 µM

query: Kindly state the measured GI50 obtained for CCOC(=O)c1cc2c([nH]c3ccc(OC)cc32)c(-c2ccc(O)cc2)n1 with HT-29.
result: 7.74 µM

query: Look up GI50 with HT-29 for this compound: CCOC(=O)c1cc2c([nH]c3ccc(C)cc32)c(-c2ccccc2)n1
result: 7.14 µM

query: Reported GI50 for HT-29, given CCOC(=O)c1cc2c([nH]c3ccc(OC)cc32)c(-c2cccc([N+](=O)[O-])c2)n1 ?
result: > 100 µM

query: Look up GI50 with HT-29 for this compound: CCOC(=O)c1cc2c([nH]c3ccc(OC)cc32)c(-c2ccccc2Cl)n1
result: > 100 µM

query: Query the reported GI50 for HT-29; item: Fc1ccc(-c2nc(-c3nnn[nH]3)cc3c2[nH]c2ccccc23)cc1
result: 25.6 µM

query: Form field: GI50 recorded for COC(=O)c1cc2c([nH]c3ccccc32)c(-c2ccccc2Cl)n1 with HT-29 (enter value)
result: 25.3 µM

query: GI50 of COc1cccc2c1C(=O)c1c(O)c3c(c(O)c1C2=O)C[C@@](O)(C(=O)CO)C[C@@H]3O[C@H]1C[C@H](N)[C@H](O)[C@H](C)O1 [DOXORUBICIN] on HT-29?
result: 2.58 µM

query: For the record COC(=O)c1cc2c([nH]c3ccccc32)c(-c2ccccc2)n1 , what value of GI50 is listed for HT-29?
result: > 100 µM

query: Fill in the recorded GI50 for this compound, with HT-29 as test system: CCOC(=O)c1cc2c([nH]c3ccc(C)cc32)c(-c2ccc(OC)cc2)n1
result: 80.1 µM

query: Please state recorded GI50 (tested on HT-29) of c1ccc(Cn2nnnc2-c2cc3c([nH]c4ccccc43)c(-c3ccccc3)n2)cc1
result: > 100 µM
